Provide the reported pIC50 of each item.
Target: LasR (Pseudomonas aeruginosa)
Construct: expressed in transfected cells; host or cells: E. coli DH5α (pJN105L pSC11), arabinose-induced
Sequence (P25084 whole entry): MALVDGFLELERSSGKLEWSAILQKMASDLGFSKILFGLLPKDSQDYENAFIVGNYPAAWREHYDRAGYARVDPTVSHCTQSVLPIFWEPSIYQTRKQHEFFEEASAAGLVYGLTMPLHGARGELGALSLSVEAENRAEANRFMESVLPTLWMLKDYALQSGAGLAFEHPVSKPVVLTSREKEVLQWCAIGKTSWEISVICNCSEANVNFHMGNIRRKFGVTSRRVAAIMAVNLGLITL
Experiment: cell-based
Assay type: cell-based
Details: determined against 7.5 nM OdDHL; read-out: LasR IC50
Numbers only, as −log10 of the molar value.

CCCCCCCC(=O)N[C@H]1CCOC1=O; 5.76
O=C(CCCc1c[nH]c2ccccc12)N[C@H]1CCOC1=O [A18, indole AHL, reference compound]; 5.08

Now consider a different compound.
Prompt: What value of pIC50 has been reported for the following compound? CCCCCC(=O)CC(=O)N[C@H]1CCOC1=O [compound 1, N-(3-oxo-octanoyl)-L-homoserine lactone, reference compound]
Completion: 6.96

###

Biological target: LuxR (Aliivibrio fischeri)
Construct: a Δ-luxI derivative of V. fischeri ES114, in which the native lux operon behaves as the bioluminescent reporter; endogenous in cells; host or cells: V. fischeri ES114 (Δ-luxI)
Sequence (P35327 whole entry): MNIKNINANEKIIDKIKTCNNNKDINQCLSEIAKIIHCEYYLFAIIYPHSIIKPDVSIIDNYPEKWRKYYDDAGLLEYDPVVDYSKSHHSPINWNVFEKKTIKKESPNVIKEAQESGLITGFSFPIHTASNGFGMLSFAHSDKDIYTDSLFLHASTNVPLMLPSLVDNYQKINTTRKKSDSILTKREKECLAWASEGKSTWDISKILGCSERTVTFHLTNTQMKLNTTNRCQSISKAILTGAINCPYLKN
Assay: cell-based
Parameters: species or system Vibrio fischeri
Conditions: read-out: V. fischeri-LuxR Activation [%], 200 μM ligand; V. fischeri ES114 (Δ-luxI); normalized to OHHL
endpoint name: activation at 200 µM (%)
Answers are plain numbers, in %.

CCCC(=O)CC(=O)N[C@H]1CCOC1=O; 100
O=C(Cc1ccc(-c2ccccc2)cc1)NC1CCOC1=O (stereo not drawn); 7

Each of the following entries comes with a recorded value; kindly state activation at 200 µM for each.
1. CCCCCCCC(=O)N[C@H]1CCOC1=O
2. O=C(Cc1ccc(Br)cc1)N[C@H]1CCOC1=O [A17, 4-bromo-phenylacetanoyl HL, reference compound]
3. O=C(Cc1ccc(C(F)(F)F)cc1)N[C@H]1CCOC1=O
4. CCCCCCCCCC(=O)NC1CCOC1=O (stereo not drawn)
5. O=C(Cc1ccc(-c2ccccc2)cc1)N[C@H]1CCOC1=O
6. CCCCCCCCCCCC(=O)N[C@H]1CCOC1=O

Completion:
1. 12
2. 3
3. 3
4. 1
5. 7
6. 2

###

Molecular target: TraR (Agrobacterium tumefaciens, UniProt P33905)
Construct: These strains lack their AHL synthase (I) genes, but retain their native R genes; endogenous in cells; host or cells: A. tumefaciens WCF47 (Δ-traI) with PtraI-lacZ plasmid pCF372
Sequence (P33905 whole entry): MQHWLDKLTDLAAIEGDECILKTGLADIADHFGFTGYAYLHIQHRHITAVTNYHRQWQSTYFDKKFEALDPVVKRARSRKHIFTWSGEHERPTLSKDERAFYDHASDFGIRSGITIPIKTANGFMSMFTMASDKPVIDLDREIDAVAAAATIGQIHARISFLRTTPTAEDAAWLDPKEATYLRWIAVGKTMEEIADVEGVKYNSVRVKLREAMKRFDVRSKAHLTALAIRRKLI
Assay: cell-based
Conditions: 10 μM synthetic ligand against 100 nM OOHL; A. tumefaciens WCF47 (pCF372); normalized to OOHL
Procedure: A. tumefaciens reporter gene assay protocols. […] An overnight culture of A. tumefaciens WCF47 (pCF372) was diluted to an OD600 of 0.1 in fresh AB minimal medium containing 400 μg/mL octopine and 50 μg/mL streptomycin. A 200 μL-portion of the diluted culture was added to each well of the multititer plate containing AHLs. […] Briefly, 200 μL aliquots of bacteria from each of the wells were added to wells of a polystyrene 96-well plate and the OD600 of each well was recorded. […]
Provide the reported A. tumefaciens-TraR Inhibition [%] of each item.
Quick note: unit goes after the number.

O=C(Cc1ccccc1I)N[C@H]1CCOC1=O [B15]; 5%
O=C(Cc1ccccc1[N+](=O)[O-])N[C@H]1CCOC1=O [B18]; 1%
CCOC(=O)/C=C/C(=O)N[C@H]1CCOC1=O [A20]; 3%

Each of the following entries comes with a recorded value; kindly state A. tumefaciens-TraR Inhibition [%] for each.
1. O=C(Cc1ccc(N=Nc2ccccc2)cc1)NC1CCOC1=O (stereo not drawn) [B22]
2. O=C(Cc1c(F)c(F)c(F)c(F)c1F)N[C@H]1CCOC1=O [B19, pentafluoroaromatic PHL]
3. O=C(NC1CCOC1=O)c1ccc(N=Nc2ccccc2)cc1 (stereo not drawn) [D20]
4. CC(C)(C)OC(=O)NCCCCC(=O)N[C@H]1CCOC1=O [A22]
5. O=C(CCC(=O)OC(C(=O)c1ccccc1)c1ccccc1)N[C@H]1CCOC1=O (stereo partly drawn) [D19]

Completion:
9%
2%
4%
10%
11%

Prompt: What value of A. tumefaciens-TraR Inhibition [%] has been reported for the following compound? O=C(CC(=O)N[C@@H]1CCOC1=O)Cc1ccccc1 [A25]
Completion: 50%
